Each entry below carries its recorded IC50.
Tested on: PWR-1E
experiment: Antiproliferative activity against human PWR-1E cells expressing androgen receptor and PSA assessed as decrease in cell viability after 3 days by WST assay
Type: functional, cell-based
conditions: 72 h
# include the unit after the value

Answered examples (2):
CCn1c(/C=C/C(=O)/C=C/c2ccccn2)nc2ccccc21: 40 nM
CCC(C)n1ccnc1/C=C/C(=O)/C=C/c1nn(C)cc1Br (stereo not given): 140 nM

# IC50 (compound: Cc1nc(C(F)(F)F)c(/C=C/C(=O)/C=C/c2nc3ccccc3n2C(C)C)s1 ) is 50 nM

# IC50 (compound: CCC(C)n1ccnc1/C=C/C(=O)/C=C/c1sc(C)nc1C(F)(F)F (stereo not given) ) is 110 nM

# IC50 (compound: CC(C)n1ccnc1/C=C/C(=O)/C=C/c1nc2ccccc2n1C(C)C ) is 30 nM
